Test: Stability in rat plasma assessed as parent compound remaining at 10 uM measured immediately by UPLC-MS/MS analysis
Type: ADME, cell-free
Settings: read-out: Stabilty
Measure name: remaining at 0 min, 10 µM
Report field: quantity (unit follows the number).

# input molecule: COc1cc2c(cc1O)CCC(C)(CC(=O)NCCCCCCCCNc1c3c(nc4cc(Cl)ccc14)CCCC3)O2 (stereo unspecified) ; wanted: its remaining at 0 min, 10 µM 100%

###

Test: Stability in human plasma assessed as parent compound remaining at 10 uM measured immediately by UPLC-MS/MS analysis
Format: ADME, cell-free
Conditions: read-out: Stabilty
Measure name: remaining at 0 min, 10 µM (%)
Reply with just the number (in %).

# input compound: COc1cc2c(cc1O)CCC(C)(CC(=O)NCCCCCCCCNc1c3c(nc4cc(Cl)ccc14)CCCC3)O2 (stereo unspecified) ; wanted: its remaining at 0 min, 10 µM 100
